test_description: Surface and interfacial tensions and spreading coefficients of perfluorocarbons on saline
Assay type: physicochemical
conditions_used: T = 25 C
Listing: γo/a (interfacial tension oil/air) of selected molecules
Response body: numeric value in mN/m, unit text excluded.

molecule | γo/a (interfacial tension oil/air) (mN/m)
FC(F)(F)C(F)(F)C(F)(F)C(F)(F)C(F)(F)C(F)(F)C(F)(F)C(F)(F)Br | 18.0
FC1(F)C(F)(F)C(F)(F)C2(F)C(F)(F)C(F)(F)C(F)(F)C(F)(F)C2(F)C1(F)F (stereo not shown) | 18.2
FC(F)(F)C(F)(F)C(F)(F)C(F)(F)N(C(F)(F)C(F)(F)C(F)(F)C(F)(F)F)C(F)(F)C(F)(F)C(F)(F)C(F)(F)F | 17.9

Now take the following molecule into account.
Query: Quick check: γo/a (interfacial tension oil/air) of FC1(F)C(F)(F)C(F)(F)C2(F)C(F)(C1(F)F)C(F)(F)C(F)(F)C1(F)C(F)(F)C(F)(F)C(F)(F)C(F)(F)C12F (stereo not shown) [APF-215, perfluoroperhydrophenanthrene] ?
Result: 21.6

---

test_description: Surface and interfacial tensions and spreading coefficients of perfluorocarbons on saline
Type: physicochemical
conditions_used: on saline, T = 25 C
reported_endpoint: γo/w (interfacial tension oil/water) (mN/m)
Response body: numeric value in mN/m, unit text excluded.

Solved cases (3 shown):
molecule | unit_text | γo/w (interfacial tension oil/water)
FC1(F)C(F)(F)C(F)(F)C2(F)C(F)(C1(F)F)C(F)(F)C(F)(F)C1(F)C(F)(F)C(F)(F)C(F)(F)C(F)(F)C12F (stereo not shown) [APF-215, perfluoroperhydrophenanthrene] | mN/m | 56.0
FC(F)(F)C(F)(F)C(F)(F)C(F)(F)C(F)(F)C(F)(F)C(F)(F)C(F)(F)Br | mN/m | 51.3
FC1(F)C(F)(F)C(F)(F)C2(F)C(F)(F)C(F)(F)C(F)(F)C(F)(F)C2(F)C1(F)F (stereo not shown) | mN/m | 55.3

Query: Quick check: γo/w (interfacial tension oil/water) of FC(F)(F)C(F)(F)C(F)(F)C(F)(F)N(C(F)(F)C(F)(F)C(F)(F)C(F)(F)F)C(F)(F)C(F)(F)C(F)(F)C(F)(F)F ?
Result: 55.1
